Measured EC50 of cell viability (Cell Titer-Glo), MM.1R (BCMA+) cells, 4-day assay, listed per entry for reference.
Biological target: T1, Human BCMA (B Cell Maturation Antigen) (human, UniProt Q02223 1-184)
T1 sequence: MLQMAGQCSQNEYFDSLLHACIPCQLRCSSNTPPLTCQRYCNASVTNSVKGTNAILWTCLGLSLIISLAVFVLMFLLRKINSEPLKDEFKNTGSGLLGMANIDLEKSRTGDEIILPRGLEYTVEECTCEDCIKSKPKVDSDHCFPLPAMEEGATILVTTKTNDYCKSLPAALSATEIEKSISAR
Assay: cell-based or functional assay
Write the number in nM without appending the unit.

Consider the worked cases shown below.
Binder	Observed Measurement
anti-BCMA-AB1-Compound 3 (antibody, human IgG1, V domains shown, drug-linker Compound 3 on antibody cysteine thiols (C-lock conjugation; positions not stated)) VH: EVQLVESGGGLVKPGGSLRLSCAASGFTSSTAWMSWVRQAPGKGLEWVGRIKSKSDGGTTDYAAPVKGRFTISRDDSKNTLFLQMNSLKTEDTAVYYCAKGGGTYGYWGQGTTVTVSS VL: QSVLTQPASVSGSPGQSVTISCTGTSSAHGGHYYVSWYQQHPGKAPKLMIYDVSNRPSGVSNRFSGSKSGNTASLTISGLQAEDEADYYCGSYTSSGSYVFGTGTKLTVL	10
anti-BCMA-AB1-Compound 7 (antibody, human IgG1, V domains shown, drug-linker Compound 7 on antibody cysteine thiols (maleimide conjugation; positions not stated)) VH: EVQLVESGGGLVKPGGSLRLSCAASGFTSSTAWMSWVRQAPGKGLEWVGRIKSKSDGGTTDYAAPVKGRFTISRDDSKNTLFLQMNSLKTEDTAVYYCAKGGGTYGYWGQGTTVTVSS VL: QSVLTQPASVSGSPGQSVTISCTGTSSAHGGHYYVSWYQQHPGKAPKLMIYDVSNRPSGVSNRFSGSKSGNTASLTISGLQAEDEADYYCGSYTSSGSYVFGTGTKLTVL	37.7
anti-BCMA-AB1-Compound 5 (antibody, human IgG1, V domains shown, drug-linker Compound 5 on antibody cysteine thiols (C-lock conjugation; positions not stated)) VH: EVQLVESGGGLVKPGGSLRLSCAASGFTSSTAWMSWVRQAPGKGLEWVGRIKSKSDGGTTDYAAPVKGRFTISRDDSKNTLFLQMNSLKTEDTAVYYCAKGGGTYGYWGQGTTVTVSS VL: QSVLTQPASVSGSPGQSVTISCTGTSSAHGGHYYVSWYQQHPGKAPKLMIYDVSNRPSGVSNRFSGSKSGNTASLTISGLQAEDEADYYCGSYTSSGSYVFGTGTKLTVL	20.5

Ask | Look at this binder and give its reported EC50 of cell viability (Cell Titer-Glo), MM.1R (BCMA+) cells, 4-day assay. anti-BCMA-AB1-Compound 6 (antibody, human IgG1, V domains shown, drug-linker Compound 6 on antibody cysteine thiols (C-lock conjugation; positions not stated)) VH: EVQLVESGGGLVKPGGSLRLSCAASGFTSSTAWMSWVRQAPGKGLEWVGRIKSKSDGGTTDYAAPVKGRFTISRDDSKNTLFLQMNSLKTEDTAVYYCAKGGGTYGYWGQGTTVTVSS VL: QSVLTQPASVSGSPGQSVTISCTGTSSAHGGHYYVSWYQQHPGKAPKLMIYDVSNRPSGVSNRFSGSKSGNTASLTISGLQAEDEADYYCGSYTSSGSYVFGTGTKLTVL
Reply | 16.6

Ask | Look at this binder and give its reported EC50 of cell viability (Cell Titer-Glo), MM.1R (BCMA+) cells, 4-day assay. anti-BCMA-AB1-Compound 8 (antibody, human IgG1, V domains shown, drug-linker Compound 8 on antibody cysteine thiols (maleimide conjugation; positions not stated)) VH: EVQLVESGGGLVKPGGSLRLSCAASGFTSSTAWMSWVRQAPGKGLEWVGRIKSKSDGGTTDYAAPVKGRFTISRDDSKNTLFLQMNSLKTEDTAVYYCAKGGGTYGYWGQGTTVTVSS VL: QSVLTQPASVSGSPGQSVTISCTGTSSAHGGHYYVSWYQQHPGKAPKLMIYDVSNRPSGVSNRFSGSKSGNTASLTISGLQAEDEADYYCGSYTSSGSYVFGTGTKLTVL
Reply | 348

All values here come from patent US20240181073A1.
